Cited source for all entries: ChEMBL document CHEMBL3259698

- Target: Cannabinoid receptor 1 (Homo sapiens)
- Sequence (P21554 whole entry): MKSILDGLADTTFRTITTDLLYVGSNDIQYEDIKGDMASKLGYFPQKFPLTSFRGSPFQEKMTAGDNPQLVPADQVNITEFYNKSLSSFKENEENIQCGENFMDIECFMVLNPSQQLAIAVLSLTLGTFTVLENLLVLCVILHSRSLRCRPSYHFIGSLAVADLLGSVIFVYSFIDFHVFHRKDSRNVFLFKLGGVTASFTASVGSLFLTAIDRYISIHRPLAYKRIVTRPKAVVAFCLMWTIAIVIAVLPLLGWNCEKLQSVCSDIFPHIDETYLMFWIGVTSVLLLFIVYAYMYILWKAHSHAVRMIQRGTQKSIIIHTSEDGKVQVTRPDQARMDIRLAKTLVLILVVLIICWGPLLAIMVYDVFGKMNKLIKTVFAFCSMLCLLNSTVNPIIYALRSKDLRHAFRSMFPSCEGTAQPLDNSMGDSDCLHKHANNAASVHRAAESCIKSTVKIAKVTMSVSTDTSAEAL
// classify(record): look up Ki in ranges Low: < 5 nM; Medium: ≥ 5 nM and < 30 nM; High: ≥ 30 nM

# count of solved cases: 6
>  <Query smiles>
Cc1nn2c(=O)n(Cc3ccc(C(F)(F)F)nc3)nc2c(-c2ccncc2)c1-c1ccc(Cl)cc1

>  <Target>
Cannabinoid receptor 1 (Homo sapiens)

>  <Qualitative label>
High

$$$$
>  <Query smiles>
CCn1nc2c(-c3ccc(Cl)cc3)c(-c3ccc(C#N)cc3)c(=O)n(Cc3ccc(C(F)(F)F)nc3C)n2c1=O

>  <Target>
Cannabinoid receptor 1 (Homo sapiens)

>  <Qualitative label>
Low

$$$$
>  <Query smiles>
Cc1nc(C(F)(F)F)ccc1Cn1c(=O)c(-c2ccncc2)c(-c2ccc(Cl)cc2)c2nn(C)c(=O)n21

>  <Target>
Cannabinoid receptor 1 (Homo sapiens)

>  <Qualitative label>
Medium

$$$$
>  <Query smiles>
Cn1c(=O)c(-c2ccc(Cl)cc2)c(-c2ccncc2)c2nn(Cc3ccc(C(F)(F)F)nc3)c(=O)n21

>  <Target>
Cannabinoid receptor 1 (Homo sapiens)

>  <Qualitative label>
Medium

$$$$
>  <Query smiles>
CCn1nc2c(-c3ccc(Cl)cc3)c(-c3ccncc3)c(=O)n(Cc3ccc(C(F)(F)F)nc3C)n2c1=O

>  <Target>
Cannabinoid receptor 1 (Homo sapiens)

>  <Qualitative label>
Low

$$$$
>  <Query smiles>
COc1nn2c(=O)n(Cc3ccc(C(F)(F)F)nc3)nc2c(-c2ccncc2)c1-c1ccc(Cl)cc1

>  <Target>
Cannabinoid receptor 1 (Homo sapiens)

>  <Qualitative label>
Medium

$$$$

Any idea which band CCn1nc2c(-c3ccc(Cl)cc3)c(-c3ccc(C#N)cc3)c(=O)n(Cc3ccc(C)cc3)n2c1=O is in? Medium

Let us now turn to Cn1nc2c(-c3ccc(Cl)cc3)c(-c3ccncc3)c(=O)n(Cc3ccc(C#N)cc3)n2c1=O Medium

Let us now turn to CCn1nc2c(-c3ccc(Cl)cc3)c(-c3cnc(C)nc3)c(=O)n(Cc3ccc(C(F)(F)F)nc3C)n2c1=O Low

Let us now turn to O=c1[nH]n2c(=O)n(Cc3ccc(C(F)(F)F)nc3)nc2c(-c2ccncc2)c1-c1ccc(Cl)cc1 High

Let us now turn to Cn1nc2c(-c3ccc(Cl)cc3)c(-c3ccncc3)c(=O)n(Cc3ccc(C(F)(F)F)nc3)n2c1=O Medium

Let us now turn to O=c1n(Cc2ccc(C(F)(F)F)nc2)nc2c(-c3ccncc3)c(-c3ccc(Cl)cc3)cnn12 Medium

Let us now turn to CCCn1nc2c(-c3ccc(Cl)cc3)c(-c3ccc(C#N)cc3)c(=O)n(Cc3ccc(C(F)(F)F)nc3C)n2c1=O Low

Let us now turn to Cn1nc2c(-c3ccncc3)c(-c3ccc(Cl)cc3)c(=O)n(Cc3ccc(C#N)cc3)n2c1=O High

---

Each entry below carries its recorded bioavailability.
- Experimental protocol: Oral bioavailability in cynomolgus monkey
- Type: ADME, organism-based, Macaca fascicularis
- Particulars: in vivo

What value of bioavailability has been recorded for this entry: CCn1nc2c(-c3ccc(Cl)cc3)c(-c3ccncc3)c(=O)n(Cc3ccc(C(F)(F)F)nc3C)n2c1=O 15%

Let us now turn to CCn1nc2c(-c3ccc(Cl)cc3)c(-c3cnc(C)nc3)c(=O)n(Cc3ccc(C(F)(F)F)nc3C)n2c1=O 51%

---

- Experimental protocol: Drug excretion in bile duct-cannulated rat bile at 5 mg/kg, po after 48 hrs
- Type: ADME, organism-based
- Design: dose 5 mg/kg, route oral
- Particulars: read-out: Drug excretion
Attribute measured: dose excreted at 48 h (%)
Lab book: enter the figure in %, no units written.

What value of dose excreted at 48 h has been recorded for this entry: CCn1nc2c(-c3ccc(Cl)cc3)c(-c3cnc(C)nc3)c(=O)n(Cc3ccc(C(F)(F)F)nc3C)n2c1=O 0.8

---

- Experimental protocol: Terminal half life in Sprague-Dawley rat at 3 mg/kg, iv
- Type: ADME, organism-based
- Design: dose 3 mg/kg, route intravenous
- Particulars: in vivo, read-out: beta t1/2 (converted)
Attribute measured: half-life (h)
Lab book: enter the figure in h, no units written.

>  <Query smiles>
CCn1nc2c(-c3ccc(Cl)cc3)c(-c3ccncc3)c(=O)n(Cc3ccc(C(F)(F)F)nc3C)n2c1=O

>  <half-life, h>
5

$$$$

What value of half-life has been recorded for this entry: CCn1nc2c(-c3ccc(Cl)cc3)c(-c3ccc(CO)nc3)c(=O)n(Cc3ccc(C(F)(F)F)nc3C)n2c1=O 1.1

Let us now turn to CCn1nc2c(-c3ccc(Cl)cc3)c(-c3ccncc3)c(=O)n(Cc3ccc(C(F)(F)F)nc3)n2c1=O 2.4

---

Each entry below carries its recorded clearance.
- Experimental protocol: Clearance in Sprague-Dawley rat at 3 mg/kg, iv
- Particulars: in vivo
Lab book: enter the figure in mL/min/kg, no units written.

Example cases with answers are listed next.
>  <Query smiles>
CCn1nc2c(-c3ccc(Cl)cc3)c(-c3ccncc3)c(=O)n(Cc3ccc(C(F)(F)F)nc3)n2c1=O

>  <clearance [mL/min/kg]>
37

$$$$
>  <Query smiles>
CCCn1nc2c(-c3ccc(Cl)cc3)c(-c3ccc(C#N)cc3)c(=O)n(Cc3ccc(C(F)(F)F)nc3C)n2c1=O

>  <clearance [mL/min/kg]>
29

$$$$
>  <Query smiles>
O=c1n(Cc2ccc(C(F)(F)F)nc2)nc2c(-c3ccncc3)c(-c3ccc(Cl)cc3)cnn12

>  <clearance [mL/min/kg]>
0.4

$$$$

Consider the additional compound presented here.
What value of clearance has been recorded for this entry: Cc1nc(C(F)(F)F)ccc1Cn1c(=O)c(-c2ccncc2)c(-c2ccc(Cl)cc2)c2nn(C)c(=O)n21 6.3

---

- Target: UniProt P33261
- Sequence (P33261 whole entry): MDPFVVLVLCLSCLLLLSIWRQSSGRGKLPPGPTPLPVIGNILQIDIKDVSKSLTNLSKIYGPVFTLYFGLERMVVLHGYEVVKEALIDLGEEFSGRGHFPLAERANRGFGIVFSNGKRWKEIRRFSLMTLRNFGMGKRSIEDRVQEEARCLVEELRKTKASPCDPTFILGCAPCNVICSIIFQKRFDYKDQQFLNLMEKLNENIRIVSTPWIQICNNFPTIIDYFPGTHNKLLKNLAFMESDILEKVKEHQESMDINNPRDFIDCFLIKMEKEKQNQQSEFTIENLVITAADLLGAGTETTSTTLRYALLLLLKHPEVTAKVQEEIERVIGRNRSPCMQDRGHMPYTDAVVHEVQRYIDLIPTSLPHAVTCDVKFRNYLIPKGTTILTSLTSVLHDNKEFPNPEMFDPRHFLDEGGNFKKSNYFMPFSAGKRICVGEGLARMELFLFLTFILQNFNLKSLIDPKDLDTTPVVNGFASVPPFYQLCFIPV
- Experimental protocol: Inhibition of human recombinant CYP2C19
Attribute measured: pIC50
// returns pIC50 (minus log10 of molar concentration), number only

Example cases with answers are listed next.
>  <Query smiles>
Cn1nc2c(-c3ccc(Cl)cc3)c(-c3ccncc3)c(=O)n(Cc3ccc(C(F)(F)F)nc3)n2c1=O

>  <pIC50>
5.37

$$$$
>  <Query smiles>
CCn1nc2c(-c3ccc(Cl)cc3)c(-c3ccncc3F)c(=O)n(Cc3ccc(C(F)(F)F)nc3C)n2c1=O

>  <pIC50>
5.30

$$$$
>  <Query smiles>
CCn1nc2c(-c3ccc(Cl)cc3)c(-c3ccncc3)c(=O)n(Cc3ccc(C(F)(F)F)nc3)n2c1=O

>  <pIC50>
4.96

$$$$
>  <Query smiles>
CCn1nc2c(-c3ccc(Cl)cc3)c(-c3ccncc3)c(=O)n(Cc3ccc(C(F)(F)F)nc3C)n2c1=O

>  <pIC50>
5.59

$$$$
>  <Query smiles>
CCn1nc2c(-c3ccc(Cl)cc3)c(-c3ccncc3C)c(=O)n(Cc3ccc(C(F)(F)F)nc3C)n2c1=O

>  <pIC50>
4.49

$$$$

Consider the additional compound presented here.
What value of pIC50 has been recorded for this entry: Cc1nc(C(F)(F)F)ccc1Cn1c(=O)c(-c2ccncc2)c(-c2ccc(Cl)cc2)c2nn(C)c(=O)n21 6.15

---

Each entry below carries its recorded logP.
- Experimental protocol: Lipophilicity, log P of the compound by HPLC analysis
- Assay type: physicochemical
Reply briefly: the number, and no unit.

>  <Query smiles>
CCn1nc2c(-c3ccc(Cl)cc3)c(-c3cnn(C)c3)c(=O)n(Cc3ccc(C#N)cc3)n2c1=O

>  <logP>
3.8

$$$$
>  <Query smiles>
CCn1nc2c(-c3ccc(Cl)cc3)c(-c3cnc(C)nc3)c(=O)n(Cc3ccc(C(F)(F)F)nc3C)n2c1=O

>  <logP>
3.8

$$$$

Consider the additional molecule presented here.
What value of logP has been recorded for this entry: COc1nn2c(=O)n(Cc3ccc(C(F)(F)F)nc3)nc2c(-c2ccncc2)c1-c1ccc(Cl)cc1 3.7

---

- Experimental protocol: Fraction unbound in rat plasma at 10 uM by equilibrium dialysis method
- Assay type: ADME, cell-free
Each entry below carries its recorded fraction unbound at 10 µM.
Reply briefly: the number, and no unit.

>  <Query smiles>
CCn1nc2c(-c3ccc(Cl)cc3)c(-c3ccc(CO)nc3)c(=O)n(Cc3ccc(C(F)(F)F)nc3C)n2c1=O

>  <fraction unbound at 10 µM>
0.09

$$$$
>  <Query smiles>
Cn1nc2c(-c3ccc(Cl)cc3)c(-c3ccncc3)c(=O)n(Cc3ccc(C#N)cc3)n2c1=O

>  <fraction unbound at 10 µM>
0.05

$$$$
>  <Query smiles>
CCn1nc2c(-c3ccc(Cl)cc3)c(-c3cnc(C)nc3)c(=O)n(Cc3ccc(C(F)(F)F)nc3C)n2c1=O

>  <fraction unbound at 10 µM>
0.13

$$$$

Consider the additional compound presented here.
What value of fraction unbound at 10 µM has been recorded for this entry: CCn1nc2c(-c3ccc(Cl)cc3)c(-c3ccc(C#N)cc3)c(=O)n(Cc3ccc(C#N)cc3)n2c1=O 0.01
